Assay: Phase I plasma pharmacokinetics
Type: in vivo, human
Conditions: human, plasma, iv, 1.375 mg/kg, Cohort 3: 1.375 mg/kg; N = 3; 90-min IV infusion; Cycle 1 Day 10; plasma LC-MS; read-out: AUCtau, Mean (SD)
Ends that are not written are not given here.
metric-name: AUC(0-t) (ng·h/mL)
Write it as a number; the unit ng·h/mL goes unstated.

IN: Fill blank: measured AUC(0-t) of the sequence KEFLHPSKVDLPR [SOR-C13] is ____.
OUT: 184

====

Test: Phase I plasma pharmacokinetics
Assay type: in vivo, human
Conditions: human, plasma, iv, 4.13 mg/kg, Cohort 5: 4.13 mg/kg; N = 3; 90-min IV infusion; Cycle 1 Day 8; plasma LC-MS; read-out: Peak plasma concentration, Median
Ends that are not written are not given here.
metric-name: Cmax (ng/mL)
Write it as a number; the unit ng/mL goes unstated.

IN: Fill blank: measured Cmax of the sequence KEFLHPSKVDLPR [SOR-C13] is ____.
OUT: 264
